Entry source: paper PMC7144582

# MEASUREMENT_TARGET: nsP3 Site 1 (Chikungunya virus), Q8JUX6
# PROCEDURE_DETAILS: NMR
TEST_READOUT: pKd
Recall that pKd is obtained by taking minus log10 of the concentration measured in molar.

CD2AP SH3-B, Q9Y5K6 (protein) TKKRQCKVLFEYIPQNEDELELKVGDIIDINEEVEEGWWSGTLNNKLGLFPSNFVKELEV; 5.35

Request: Recorded pKd for CD2AP SH3-C, Q9Y5K6 (protein) KAKEYCRTLFAYEGTNEDELTFKEGEIIHLISKETGEAGWWRGELNGKEGVFPDNFAVQINE , please?
Response: 4.29
